test: ANTS/DPX liposome leakage assay, POPC vesicles; format: biochemical; details: 0.5 mM vesicles, pH 4.8
I'd be grateful if you could share measured Peptide Concentration-induced 50% ANTS/DPX leakage at pH 4.8 (L/P) POPC Vesicle for these entries.
Please reply with the bare figure in L/P and do not write the unit itself.

**Query** Tell me the measured Peptide Concentration-induced 50% ANTS/DPX leakage at pH 4.8 (L/P) POPC Vesicle of GLLDLLHLLLEAAG [DHE] , please.
**Result** 58

**Query** Please give the measured Peptide Concentration-induced 50% ANTS/DPX leakage at pH 4.8 (L/P) POPC Vesicle for this sequence: GLLELLKLLLKAAG [EKK]
**Result** 60

**Query** For the sequence shown here, GLLHLLHLLLHAAG [HHH] , give the reported Peptide Concentration-induced 50% ANTS/DPX leakage at pH 4.8 (L/P) POPC Vesicle.
**Result** 173

**Query** Tell me the measured Peptide Concentration-induced 50% ANTS/DPX leakage at pH 4.8 (L/P) POPC Vesicle of GLLHLLKLLLKAAG [HKK] , please.
**Result** 106

**Query** Look up Peptide Concentration-induced 50% ANTS/DPX leakage at pH 4.8 (L/P) POPC Vesicle: GLLELLHLLLKAAG [EHK]
**Result** 55

**Query** Dear colleague, I am looking for the recorded Peptide Concentration-induced 50% ANTS/DPX leakage at pH 4.8 (L/P) POPC Vesicle of the following sequence: GLLKLLELLLKAAG [KEK]
**Result** 110

**Query** Item under review: GLLKLLKLLLHAAG [KKH] . Reported Peptide Concentration-induced 50% ANTS/DPX leakage at pH 4.8 (L/P) POPC Vesicle?
**Result** 164

**Query** // lookup Peptide Concentration-induced 50% ANTS/DPX leakage at pH 4.8 (L/P) POPC Vesicle for GLLDLLELLLEAAG [DEE]
**Result** 110

**Query** Recorded Peptide Concentration-induced 50% ANTS/DPX leakage at pH 4.8 (L/P) POPC Vesicle of GLLKLLKLLLKAAG [KKK] , please.
**Result** 156

**Query** Using the record for GLLHLLHLLLKAAG [HHK] , report its Peptide Concentration-induced 50% ANTS/DPX leakage at pH 4.8 (L/P) POPC Vesicle.
**Result** 149

**Query** Could you tell me which Peptide Concentration-induced 50% ANTS/DPX leakage at pH 4.8 (L/P) POPC Vesicle is on file for GLLHLLELLLKAAG [HEK] ?
**Result** 97

**Query** Given the entry GLLKLLKLLLEAAG [KKE] , report its measured Peptide Concentration-induced 50% ANTS/DPX leakage at pH 4.8 (L/P) POPC Vesicle.
**Result** 143

**Query** Entry GLLHLLKLLLEAAG [HKE] : reported Peptide Concentration-induced 50% ANTS/DPX leakage at pH 4.8 (L/P) POPC Vesicle = ?
**Result** 173

**Query** Look up Peptide Concentration-induced 50% ANTS/DPX leakage at pH 4.8 (L/P) POPC Vesicle: GLLKLLELLLHAAG [KEH]
**Result** 188

**Query** Can you look up the measured Peptide Concentration-induced 50% ANTS/DPX leakage at pH 4.8 (L/P) POPC Vesicle of GLLKLLHLLLKAAG [KHK] for me?
**Result** 140

**Query** Which measured Peptide Concentration-induced 50% ANTS/DPX leakage at pH 4.8 (L/P) POPC Vesicle value corresponds to GLLDLLKLLLEAAG [DKE] ?
**Result** 21
